Experiment: growth suppression of beta-catenin knockout HCT116, pilot screen, human colon tumor cells (AID 823);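 further: 0% = wells killed by 20 µM Hyamine and 100% = untreated DMSO cell wells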
Conditions: CellTiter-Glo, 60 h, at 10 µM, stronger effect = lower value
Inconclusive results are not listed.
Quick reference: viability of the listed items.

>  <COMPOUND>
CC(C)Cc1cc(C(=O)Nc2cc(Cl)ccc2Cl)no1

>  <viability, %>
104

$$$$
>  <COMPOUND>
Cc1ccc(C(=O)NCc2ccco2)cc1S(=O)(=O)N1CCCCC1

>  <viability, %>
82.9

$$$$
>  <COMPOUND>
C=CCOC(=O)CCCC(=O)NC1CCCCC1

>  <viability, %>
95.6

$$$$
>  <COMPOUND>
CC(=O)N1CCc2cc(S(=O)(=O)Nc3ccccc3N3CCN(C)CC3)ccc21

>  <viability, %>
94.8

$$$$
>  <COMPOUND>
Cc1onc(-c2ccccc2)c1C(=O)N1CCN(C/C=C/c2ccccc2)CC1

>  <viability, %>
78.9

$$$$
>  <COMPOUND>
Brc1[nH]nc2ccccc12

>  <viability, %>
96.7

$$$$
>  <COMPOUND>
CCCn1cc(S(=O)(=O)CC(=O)NC2CCCCC2)c2ccccc21

>  <viability, %>
93.2

$$$$
>  <COMPOUND>
O=C(COC(=O)C(O)c1ccccc1)c1ccc2c(c1)OCCO2 (stereo unspecified)

>  <viability, %>
97.1

$$$$
>  <COMPOUND>
C=C(C)CC1N(c2cccc(OC)c2)C(=O)C2C(C(=O)O)C3C=CC21O3 (stereo unspecified)

>  <viability, %>
103

$$$$
>  <COMPOUND>
COc1ccc(N(CC(=O)NCc2ccc3c(c2)OCO3)S(=O)(=O)c2c(C)nn(C)c2C)cc1

>  <viability, %>
101

$$$$
>  <COMPOUND>
CSCCC1(C(=O)O)NC(c2ccccc2O)C2C(=O)N(C(C)C)C(=O)C21 (stereo unspecified)

>  <viability, %>
102

$$$$

* * *

Let's look at some molecules and their measured viability.
Test: growth suppression of PTEN-deleted HCT116, pilot screen, cell-based, HCT116 clonal line, CellTiter-Glo (AID 824);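 further: 0% = 20 µM Hyamine control and 100% = vehicle cell control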
Conditions: 60 h, at 10 µM, stronger effect = lower value
Records with an inconclusive call do not appear.

>  <MOLECULE>
c1ccc(COc2ccc(Nc3ncnc4nc[nH]c34)cc2)cc1

>  <VALUE_UNIT>
%

>  <viability>
83

$$$$
>  <MOLECULE>
CC(=O)c1c(C)oc(C)c1CSCc1ccc(C(=O)O)o1

>  <VALUE_UNIT>
%

>  <viability>
97.9

$$$$
>  <MOLECULE>
COc1ccc(C(=O)NCCSCc2ccco2)cc1OC

>  <VALUE_UNIT>
%

>  <viability>
95.6

$$$$
>  <MOLECULE>
COc1ccc(CCNc2oc(-c3ccc(C)cc3)nc2C#N)cc1OC

>  <VALUE_UNIT>
%

>  <viability>
104

$$$$
>  <MOLECULE>
CNC(=O)c1c[nH]n2c(=O)c(Cc3ccccc3F)c(C)nc12

>  <VALUE_UNIT>
%

>  <viability>
91.6

$$$$
>  <MOLECULE>
O=C(O)c1ccc(CSc2nnc(-c3ccco3)o2)cc1

>  <VALUE_UNIT>
%

>  <viability>
96.6

$$$$
>  <MOLECULE>
CCOC(=O)N1CCN(C(=O)CN(c2cccc(C(F)(F)F)c2)S(C)(=O)=O)CC1

>  <VALUE_UNIT>
%

>  <viability>
88.9

$$$$
>  <MOLECULE>
Cc1cccc(N2CCN(C(=O)C3CCN(c4nnc(-n5cccc5)s4)CC3)CC2C)c1 (stereo not drawn)

>  <VALUE_UNIT>
%

>  <viability>
45

$$$$
>  <MOLECULE>
COc1ccc(C/C(O)=C(\C#N)c2nc3ccccc3[nH]2)cc1OC

>  <VALUE_UNIT>
%

>  <viability>
87.7

$$$$
>  <MOLECULE>
O=C(c1ccccc1)c1ccc(OC(=O)N2CCOCC2)cc1

>  <VALUE_UNIT>
%

>  <viability>
90.7

$$$$
>  <MOLECULE>
O=C(Cn1c(=O)oc2ccccc21)N1CCN(c2ccc(N3CCOCC3)nn2)CC1

>  <VALUE_UNIT>
%

>  <viability>
101

$$$$
>  <MOLECULE>
CS(=O)(=O)N(CC(=O)N1CCCCCC1)c1cccc(Br)c1

>  <VALUE_UNIT>
%

>  <viability>
94.5

$$$$
>  <MOLECULE>
CCN(CC)CCN1C(=O)c2ccccc2NC1c1cccc(F)c1 (stereo not drawn)

>  <VALUE_UNIT>
%

>  <viability>
91.4

$$$$
>  <MOLECULE>
CCn1ccc(C(=O)Nc2ccc(Cl)cn2)n1

>  <VALUE_UNIT>
%

>  <viability>
93.9

$$$$
>  <MOLECULE>
O=C(Oc1ccc2c(=O)c(Cl)coc2c1)c1ccncc1

>  <VALUE_UNIT>
%

>  <viability>
99.2

$$$$
>  <MOLECULE>
COc1cc(C)c(C)cc1S(=O)(=O)N1CCN(Cc2ccccc2)CC1

>  <VALUE_UNIT>
%

>  <viability>
93.5

$$$$
>  <MOLECULE>
COc1cccc(-c2nc(CS(=O)(=O)CC(=O)NCc3ccccc3)c(C)o2)c1

>  <VALUE_UNIT>
%

>  <viability>
88.1

$$$$
>  <MOLECULE>
CC(=O)N1c2ccccc2C(=O)C1N1CCCCC1 (stereo not drawn)

>  <VALUE_UNIT>
%

>  <viability>
84.4

$$$$
>  <MOLECULE>
COc1cc2c(cc1OC)C(C(=O)NC1CC1)C1c3ccccc3CCN1C2=O (stereo not drawn)

>  <VALUE_UNIT>
%

>  <viability>
97.3

$$$$
>  <MOLECULE>
NC(=O)c1oc2ccccc2c1NC(=O)CCc1ccccc1

>  <VALUE_UNIT>
%

>  <viability>
97.2

$$$$
>  <MOLECULE>
O=C(NCCc1csc(-c2cccnc2)n1)c1ccco1

>  <VALUE_UNIT>
%

>  <viability>
98.6

$$$$
>  <MOLECULE>
CCN(CC)CCNC(=O)c1cc2c(=O)n(C)c3ccccc3c2n1C

>  <VALUE_UNIT>
%

>  <viability>
51.4

$$$$
>  <MOLECULE>
COc1ccc(Cl)cc1Nc1cc(C)nc2nc(C)nn12

>  <VALUE_UNIT>
%

>  <viability>
94.8

$$$$
